From: PubChem BioAssay AID1159580

Assay: chemical genetic growth profiling, strain panel (AID 1159580);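 further: tested at 20 µM; growth read once vehicle control cultures reached saturation at 30 °C; lower values mean less growth of the strain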
Settings: S. cerevisiae deletion strains, growth OD, locus YNL183C, strain NPR1
Among all 5,500 compounds or so, about 2,000 (36%) were called active. Not shown: some 18% with an inconclusive outcome. No stated cut-off is given here; in the data, active means normalized growth mostly below about 0.91 (no sharp cut-off); inconclusive means no clear call, values can overlap the other calls; inactive means mostly above about 0.92. Some of the results follow.
Answer with one of the outcomes given here: active, inactive

Solved entries:
Outcome? CN1CCc2cccc3c2C1Cc1ccc(O)c(O)c1-3 (centres undefined)
inactive

For this molecule, state the assay outcome: `CCCc1cc(OC)c2c(c1)OCO2`
inactive

Any idea what this test logged for `O=C(CO/N=C\c1ccc(Cl)cc1Cl)NNC(=S)Nc1cc(Cl)ccc1Cl` ?
inactive

// param item: `O=C(/C=C/c1ccc(O)c(O)c1)O[C@@H]1C[C@](O)(C(=O)O)C[C@@H](O)[C@H]1O` ; yields the recorded call
inactive

Field: outcome | Entry: `CC1=C(/C=C/C(C)=C/C=C/C(C)=C/C(=O)O)C(C)(C)CCC1`
inactive

New cases:
Give the logged outcome of this assay for the following molecule: CCC(COC(=O)c1cc(OC)c(OC)c(OC)c1)(c1ccccc1)N(C)C (centres undefined)
inactive

Fill in: this test's call for COc1cc(C)c2c(c1C=O)Oc1c(c(C)c(O)c3c1C(O)OC3=O)OC2=O (centres undefined) is ___
inactive
